Molecular target: human GlyT1c (Homo sapiens (Human), UniProt P48067)
Sequence (P48067 whole entry): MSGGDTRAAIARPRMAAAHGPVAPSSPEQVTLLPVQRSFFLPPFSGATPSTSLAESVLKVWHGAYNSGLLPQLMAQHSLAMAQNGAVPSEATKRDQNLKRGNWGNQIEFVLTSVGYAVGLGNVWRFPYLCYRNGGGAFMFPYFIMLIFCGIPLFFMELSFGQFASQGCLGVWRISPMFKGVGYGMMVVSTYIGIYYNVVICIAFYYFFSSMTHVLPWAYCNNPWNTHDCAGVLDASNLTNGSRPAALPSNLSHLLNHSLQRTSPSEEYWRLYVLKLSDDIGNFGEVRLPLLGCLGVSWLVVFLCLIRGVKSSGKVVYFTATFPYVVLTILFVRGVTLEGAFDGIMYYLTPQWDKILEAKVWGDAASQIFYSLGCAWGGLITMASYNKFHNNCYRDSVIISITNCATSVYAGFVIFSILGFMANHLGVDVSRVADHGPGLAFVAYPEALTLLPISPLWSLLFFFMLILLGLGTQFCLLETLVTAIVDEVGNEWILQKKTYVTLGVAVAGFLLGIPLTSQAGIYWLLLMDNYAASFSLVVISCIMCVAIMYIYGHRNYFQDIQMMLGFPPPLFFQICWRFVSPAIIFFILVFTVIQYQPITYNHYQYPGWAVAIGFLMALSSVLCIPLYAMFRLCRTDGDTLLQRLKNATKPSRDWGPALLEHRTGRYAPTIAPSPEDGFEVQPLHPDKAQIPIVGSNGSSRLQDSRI
Experiment: [3H]-Glycine uptake into recombinant CHO cells expressing human GlyT1
Format: cell-based
Details: hGlyT1c_5_CHO cells, 200 nM [3H]-glycine
Where a name gives a salt, the structure may show the parent alone.
Here, each record is paired with measured IC50 data.

- MOLECULE: "O=C(NCCOc1ccc2c(c1)C(C1(c3ccc(Cl)cc3)CCC1)NCC2)c1ccc(Cl)cc1Cl (stereo not shown)"
  IC50: "≤ 10 µM"
- MOLECULE: "O=C(NCCOc1ccc2c(c1)C(C1(c3ccc(Cl)cc3)CCC1)NCC2)c1ccccc1 (stereo not shown)"
  IC50: "≤ 10 µM"
- MOLECULE: "O=S(=O)(NCCOc1ccc2c(c1)C(C1(c3ccc(Cl)cc3)CCC1)NCC2)c1ccccc1 (stereo not shown) [Example 62, hydrochloride]"
  IC50: "≤ 1 µM"
- MOLECULE: "O=S(=O)(NCCOc1ccc2c(c1)C(C1(c3ccc(Cl)cc3)CCC1)NCC2)c1cccs1 (stereo not shown) [Example 17, hydrochloride]"
  IC50: "≤ 0.1 µM"

---

Target: human GlyT1c transporter (Homo sapiens (Human))
Sequence (P48067 whole entry): as above
Test: Radioligand binding assay using recombinant CHO cell membranes expressing human GlyT1
Conditions: examples 88-204, radioligand not specified by footnote, read-out: radioligand binding Kiapp
pKi: −log10 of the molar value. Structures can show the parent of a compound that is named as a salt.

- MOLECULE: "O=S(=O)(NCCOc1ccc2c(c1)C(C1(c3ccc(Cl)cc3)CCC1)NCC2)C1CCNC1 (single isomer, unassigned) [Example 151, dihydrochloride]"
  SYSTEM: "human GlyT1c transporter (Homo sapiens (Human))"
  pKi: "≥ 7.00"
- MOLECULE: "NCCCCS(=O)(=O)NCCOc1ccc2c(c1)C(C1(c3ccc(Cl)cc3)CCC1)NCC2 (stereo not shown) [Example 184]"
  SYSTEM: "human GlyT1c transporter (Homo sapiens (Human))"
  pKi: "≥ 5.00"
- MOLECULE: "CN(C)S(=O)(=O)NCCOc1ccc2c(c1)C(C1(c3ccc(Cl)cc3)CCC1)NCC2 (stereo not shown) [Example 143, hydrochloride]"
  SYSTEM: "human GlyT1c transporter (Homo sapiens (Human))"
  pKi: "≥ 7.00"
- MOLECULE: "CCCNCCCS(=O)(=O)NCCOc1ccc2c(c1)C(C1(c3ccc(Cl)cc3)CCC1)NCC2 (stereo not shown) [Example 186]"
  SYSTEM: "human GlyT1c transporter (Homo sapiens (Human))"
  pKi: "≥ 5.00"
- MOLECULE: "O=S(=O)(NCCOc1ccc2c(c1)C(C1(c3ccc(Cl)cc3)CCC1)NCC2)C1CCCNC1 (single isomer, unassigned) [Example 164, dihydrochloride]"
  SYSTEM: "human GlyT1c transporter (Homo sapiens (Human))"
  pKi: "≥ 6.00"
- MOLECULE: "CN1CCOc2cc(S(=O)(=O)NCCOc3ccc4c(c3)C(C3(c5ccc(Cl)cc5)CCC3)NCC4)cnc21 (stereo not shown) [Example 185, hydrochloride]"
  SYSTEM: "human GlyT1c transporter (Homo sapiens (Human))"
  pKi: "≥ 5.00"
- MOLECULE: "NCCS(=O)(=O)NCCOc1ccc2c(c1)[C@H](C1(c3ccc(Cl)cc3)CCC1)NCC2 [Example 146, dihydrochloride]"
  SYSTEM: "human GlyT1c transporter (Homo sapiens (Human))"
  pKi: "≥ 7.00"
- MOLECULE: "Cn1cc(S(=O)(=O)NCCOc2ccc3c(c2)C(C2(c4ccc(Cl)cc4)CC(F)(F)C2)NCC3)cn1 (single isomer, unassigned) [Example 168]"
  SYSTEM: "human GlyT1c transporter (Homo sapiens (Human))"
  pKi: "≥ 6.00"
- MOLECULE: "CCCS(=O)(=O)NCc1ccc2c(c1)C(C(C)(C)c1ccc(Cl)cc1)NCC2 (stereo not shown) [Example 96, hydrochloride]"
  SYSTEM: "human GlyT1c transporter (Homo sapiens (Human))"
  pKi: "≥ 7.00"
- MOLECULE: "O=S(=O)(Nc1ccc(Oc2ccc3c(c2)C(C2(c4ccc(Cl)cc4)CCC2)NCC3)nc1)c1cccnc1 (stereo not shown) [Example 131, trihydrochloride]"
  SYSTEM: "human GlyT1c transporter (Homo sapiens (Human))"
  pKi: "≥ 5.00"
- MOLECULE: "O=S(=O)(Nc1ccccc1Oc1ccc2c(c1)C(C1(c3ccc(Cl)cc3)CCC1)NCC2)c1cccnc1 (stereo not shown) [Example 122, dihydrochloride]"
  SYSTEM: "human GlyT1c transporter (Homo sapiens (Human))"
  pKi: "≥ 5.00"
- MOLECULE: "O=S(=O)(NCCOc1ccc2c(c1)C(C1(c3cccc(F)c3)CCC1)NCC2)c1cccnc1 (stereo not shown) [Example 101, dihydrochloride]"
  SYSTEM: "human GlyT1c transporter (Homo sapiens (Human))"
  pKi: "≥ 7.00"
- MOLECULE: "COc1ccc(S(=O)(=O)NCCOc2ccc3c(c2)C(C2(c4ccc(Cl)cc4)CCC2)NCC3)cn1 (stereo not shown) [Example 156, hydrochloride]"
  SYSTEM: "human GlyT1c transporter (Homo sapiens (Human))"
  pKi: "≥ 7.00"

---

Here, each record is paired with measured pKi data.
Target: UniProt:P48067
Assay: Radioligand binding assay using recombinant CHO cell membranes expressing human GlyT1
Conditions: examples 88-204, radioligand not specified by footnote, read-out: radioligand binding Kiapp
pKi: −log10 of the molar value. Counter-ions that a name gives are not always drawn.
QUANTITY_NAME: pKi

- COMPOUND: "CCCS(=O)(=O)Nc1ccc(Oc2ccc3c(c2)C(C2(c4ccc(Cl)cc4)CCC2)NCC3)nc1 (centres unmarked) [Example 119, dihydrochloride]"
  QUANTITY_NAME: "pKi"
  OBSERVED_VALUE: "≥ 5.00"
- COMPOUND: "O=S(=O)(CCO)NCCOc1ccc2c(c1)C(C1(c3ccc(Cl)cc3)CCC1)NCC2 (centres unmarked) [Example 97, hydrochloride]"
  QUANTITY_NAME: "pKi"
  OBSERVED_VALUE: "≥ 7.00"
- COMPOUND: "Cn1cc(S(=O)(=O)NCC(=O)Nc2ccc3c(c2)C(C2(c4ccc(Cl)cc4)CCC2)NCC3)cn1 (centres unmarked) [Example 113, hydrochloride]"
  QUANTITY_NAME: "pKi"
  OBSERVED_VALUE: "≥ 6.00"
- COMPOUND: "CC(=O)Nc1ncc(S(=O)(=O)NCCOc2ccc3c(c2)C(C2(c4ccc(Cl)cc4)CCC2)NCC3)s1 (centres unmarked) [Example 188, hydrochloride]"
  QUANTITY_NAME: "pKi"
  OBSERVED_VALUE: "≥ 5.00"
- COMPOUND: "CCCS(=O)(=O)Nc1cccnc1Oc1ccc2c(c1)C(C1(c3ccc(Cl)cc3)CCC1)NCC2 (centres unmarked) [Example 128, dihydrochloride]"
  QUANTITY_NAME: "pKi"
  OBSERVED_VALUE: "≥ 5.00"
- COMPOUND: "CCCN1CCN(S(=O)(=O)NCCOc2ccc3c(c2)C(C2(c4ccc(Cl)cc4)CCC2)NCC3)CC1 (centres unmarked) [Example 183, dihydrochloride]"
  QUANTITY_NAME: "pKi"
  OBSERVED_VALUE: "≥ 5.00"
- COMPOUND: "O=S(=O)(NCCOc1ccc2c(c1)C(C1(c3ccc(Cl)cc3)CCC1)NCC2)c1c(Cl)nc2sccn12 (centres unmarked) [Example 167, hydrochloride]"
  QUANTITY_NAME: "pKi"
  OBSERVED_VALUE: "≥ 6.00"
- COMPOUND: "CCCS(=O)(=O)NCCNc1ccc2c(c1)C(C1(c3ccc(Cl)cc3)CCC1)NCC2 (centres unmarked) [Example 89, dihydrochloride]"
  QUANTITY_NAME: "pKi"
  OBSERVED_VALUE: "≥ 7.00"
- COMPOUND: "CCCS(=O)(=O)NCC(=O)Nc1ccc2c(c1)C(C1(c3ccc(Cl)cc3)CCC1)NCC2 (centres unmarked) [Example 99, hydrochloride]"
  QUANTITY_NAME: "pKi"
  OBSERVED_VALUE: "≥ 7.00"
- COMPOUND: "O=S(=O)(NCCOc1ccc2c(c1)C(C1(c3ccc(Cl)cc3)CCC1)NCC2)c1ccc(Oc2ccccc2)nc1 (centres unmarked) [Example 173, hydrochloride]"
  QUANTITY_NAME: "pKi"
  OBSERVED_VALUE: "≥ 5.00"
- COMPOUND: "O=S(=O)(Nc1ccc(Oc2ccc3c(c2)C(C2(c4ccc(Cl)cc4)CCC2)NCC3)nc1)c1cccs1 (centres unmarked) [Example 124, dihydrochloride]"
  QUANTITY_NAME: "pKi"
  OBSERVED_VALUE: "≥ 5.00"
- COMPOUND: "CCN(CC)CCCS(=O)(=O)NCCOc1ccc2c(c1)C(C1(c3ccc(Cl)cc3)CCC1)NCC2 (centres unmarked) [Example 194]"
  QUANTITY_NAME: "pKi"
  OBSERVED_VALUE: "≥ 5.00"
- COMPOUND: "CN(C)CCS(=O)(=O)NCCOc1ccc2c(c1)C(C1(c3ccc(Cl)cc3)CCC1)NCC2 (centres unmarked) [Example 149]"
  QUANTITY_NAME: "pKi"
  OBSERVED_VALUE: "≥ 7.00"
- COMPOUND: "Nc1ccc(S(=O)(=O)NCCOc2ccc3c(c2)C(C2(c4ccc(Cl)cc4)CCC2)NCC3)cc1 (centres unmarked) [Example 147, dihydrochloride]"
  QUANTITY_NAME: "pKi"
  OBSERVED_VALUE: "≥ 7.00"
